- assay-info: yeast display, Sf9 membrane polyspecificity reagent, FACS + sequencing; frameworks hold sequencing errors
quantity: polyreactivity (PSR sort gate)

{"sequence-string": "QVQLVESGGGLVQAGGSLRLSCAASGSIQYRYAMGWYRQAPGKERELVAAITRSGGSTYYADSVKGRFTISRDNAKNTVYLQMNSLKPEDTAVYYCARQRKVSAHSIEMDYWGQGTQVTVSS", "quantity": "polyreactivity (PSR sort gate)", "reported": "low polyreactivity"}
{"sequence-string": "QVQLVESGGGLVQAGGSLRLSCAASGRIFGDNTMGWYRQAPGKERELVAAISFTGGSTYYADSVKGRFTISRDNAKNTVYLQMNSLKPEDTAVYYCNADWVSTWGYDYWGQGTQVTVSS", "quantity": "polyreactivity (PSR sort gate)", "reported": "low polyreactivity"}
{"sequence-string": "QVQLEESGGGLVQAGGSLRLSCAASGRIFGYYPMGWYRQATGKERELVAGISRSGGSTYYADSVKGRFTISRDNAKNTVFLQMISLKPEDTAVYYCAKRVSYYGRYRPYDYWGQGTQVTVSS", "quantity": "polyreactivity (PSR sort gate)", "reported": "high polyreactivity"}
{"sequence-string": "QVQLEESGGGLVQAGGSLRLSCAASGSIFRRNVMGWYRQAPGKERELVAAISWSGDRTYYADSVKGRFTISRDNAKNTVYLQMNSLKPVGTAVYYCAAANASPRRYGQYDYWGQGTQVTVSS", "quantity": "polyreactivity (PSR sort gate)", "reported": "high polyreactivity"}
{"sequence-string": "QVQLVESGGGLVQAGGSLRLSCAASGRTFWTYTLGWYRQAPGKEREFVAAITFGDGSTSYADSVKGRFTISRDNAKNTVYLQMNSLKPEDTAVYYCAAADQVGQEDDYWGQGTQVTVSS", "quantity": "polyreactivity (PSR sort gate)", "reported": "low polyreactivity"}
{"sequence-string": "QVQLVESGGGLVMAVGSLRLSCAASGSTFAGNAMGWYRQAPGKERELVAAISIVGSTSYADSVKGRFTISRDNAKITFYLQMNSLKPEDTAVYDCAAEWVTSYLNYYHWGQGTQVTVSS", "quantity": "polyreactivity (PSR sort gate)", "reported": "low polyreactivity"}

Query sequence follows.
Return the recorded polyreactivity (PSR sort gate) value; entry: QVQLVESGGGLVQAGGSLRLSCAASGFIFPYNAMGWYRQAPGKERELVAVISSSGGDTYYADSVKGRFTISRDNAKNTVYLQMNSLKPEDTAVYYCAADSYYGYEYWGQGTQVTVSS low polyreactivity
